# Tested on: SR leukemia
# Experiment: NCI-60 one-dose screen, 48 h (100 = growth as untreated, 0 = no growth, -100 = all killed)
# Test Settings: 10 µM unless noted
About 83,000 compounds went through this panel and 20% of them were active in at least one assay; those are over-represented in the sample as a whole.
Measurement Name: growth (%)

Compound | Target Entity | Number
ClC(Cl)c1nc(-c2ccccc2)nc2cc(-c3ccccc3)nn12 | SR leukemia | 90.7
CC(C)(C)n1cc(-c2ccnc(NCCCNS(=O)(=O)c3ccc(F)cc3)c2)c(-c2cccc(O)c2)n1 | SR leukemia | 13.8
CCN1C(=O)N(CC)C2C1NN=c1s/c(=C\c3cccnc3)c(=O)n12 (stereo not given) | SR leukemia | 15.1
COc1ccc(C2NN=C3c4ccccc4CCC32)cc1 (stereo not given) | SR leukemia | 3.17
Cc1cc(N/N=C/c2nc(-c3ccc(Br)cc3)oc2C)c2cc(Cl)ccc2n1 | SR leukemia | 5.46
O=C(NCc1cn(Cc2cccc(Oc3ccccc3)c2)nn1)c1cccnc1Nc1ccc(F)cc1 | SR leukemia | 28.3
O=c1[nH]c(Nc2ccc(S(=O)(=O)O)cc2)nc2nc(Nc3ccc(NC(=S)Nc4ccccc4)cc3)nc(-c3ccc(O)cc3O)c12 | SR leukemia | 61.7
C=C1C(=O)O[C@H]2[C@H]1CC/C(Cn1cc(CNC(=O)/C=C/c3c[nH]c4ccccc34)nn1)=C\CC[C@@]1(C)O[C@@H]21 | SR leukemia | 56.6
Cc1ccc(S(=O)(=O)n2cc(C(=O)C(=O)Nc3ccncc3)c3ccccc32)cc1 | SR leukemia | 28.8
NNc1cccc(/C=C/c2ccccc2)cc1=O | SR leukemia | 31.8
CCN(CC)CCCC(C)Nc1c2ccc(Cl)cc2nc2cc(OC)c(OC)cc12 (stereo not given) | SR leukemia | -14.2
COc1ccc2[nH]c(=O)c(/C=N/Nc3nc(-c4ccccc4)cs3)c(O)c2c1 | SR leukemia | 56.2
COc1ccc(C(=O)c2cc(OC)c(OC)c(OC)c2OC)cc1O | SR leukemia | 26.4
C=C1CCC2C3(C)COC(c4c(OC)cccc4OC)OC3CCC2(C)C1C/C=C1/C(=O)OCC1O (stereo not given) | SR leukemia | 34.7
CCCCCCCCCCCCCCCCNC(=O)OC(C)C | SR leukemia | 1.69
Cc1csc(NC(c2ccc(Br)cc2)c2c(C)nc3ccccn23)n1 (stereo not given) | SR leukemia | 96.6
CCN(CC)CCCNc1nccc2ccc(Cl)cc12 | SR leukemia | 94.3
Cc1ccc2[nH]c(=O)c3c(c2c1)Oc1ncn2nc(-c4ccco4)nc2c1C3c1ccc(Cl)cc1 (stereo not given) | SR leukemia | 106
CC(C)c1ccc2occ(C=C3C(=O)NC(=O)NC3=O)c(=O)c2c1 | SR leukemia | 73.1
Cc1c(C(=O)/C=C/c2csc3ccccc23)[n+](=O)c2ccccc2n1[O-] | SR leukemia | 13.5
CC(C)(C)n1cc(-c2ccnc(NCCCNS(=O)(=O)c3ccc(C(F)(F)F)cc3)c2)c(-c2cccc(O)c2)n1 | SR leukemia | -7.63
O=C(N/N=C/C=C\c1ccccc1)C(=O)N/N=C/C=C/c1ccccc1 | SR leukemia | 103
COc1ccc(/C=C2/C(=O)NC(SCC(=O)N3CCN(c4cc5c(cc4F)c(=O)c(C(=O)O)cn5C4CC4)CC3)=NC2N)cc1OC (stereo not given) | SR leukemia | 108
COc1ccc(-c2nc3sc(-c4cc(OC)c(OC)c(OC)c4)nn3c2/C=C2/C(=O)Nc3ccc(F)cc32)cc1 | SR leukemia | 18.6
COc1ccc(S(=O)(=O)n2ccc(-c3ccc4c(c3)CCC(C)(C)O4)n2)cc1OC | SR leukemia | 60.2
CSc1nc2c(c(=O)[nH]1)C(c1ccc(C)cc1)C=C(C(=O)O)N2 (stereo not given) | SR leukemia | 117
CC(C)(C)n1cc(-c2ccnc(NCCCNS(=O)(=O)c3ccccc3)c2)c(-c2cccc(O)c2)n1 | SR leukemia | 20.9
Cc1nn(-c2ccc([N+](=O)[O-])cc2)c2ncnc(NCCc3ccccc3)c12 | SR leukemia | 62.3
COc1ccc(/C=C2\N=C(c3ccccc3)N(C(=O)c3ccccc3O)NC2=O)cc1 | SR leukemia | 64
CC1(C)C(=O)/C(=C\c2ccc(C(F)(F)F)cc2)C[C@]2(C)[C@H]3CC[C@@H]4[C@H]5[C@H](C(=O)/C=C/c6ccc(C(F)(F)F)cc6)CC[C@]5(CO)CC[C@@]4(C)[C@]3(C)CC[C@@H]12 | SR leukemia | 82.2

* * *

# System: TK-10 renal
# Experiment: NCI-60 one-dose screen, 48 h (100 = growth as untreated, 0 = no growth, -100 = all killed)
# Test Settings: 10 µM unless noted
The panel holds about 83,000 compounds, 20% with a hit somewhere; the sample as a whole holds those more often.

Compound | Measurement Unit | growth
COc1cc(-c2nn(-c3cccc(NC(=O)c4ccccc4)c3)cc2-c2ccncc2)ccc1Cl | % | 31
Cc1csc(NC(c2ccc(Br)cc2)c2c(C)nc3ccccn23)n1 (stereo not given) | % | 116
COc1cc(-c2nc(-c3nc4ccc(Cl)cc4[nH]3)cc3c2[nH]c2ccccc23)cc(OC)c1OC | % | 93.6
COc1ccc2c(c1)NC1=C(C(=O)OC1)C2c1cc(OC)c2c(c1)OCO2 (stereo not given) | % | 58.3
CC(C)OC(=O)N1CCOCC1 | % | 101

* * *

# Tested on: SW-620 colon
# Experiment: NCI-60 one-dose screen, 48 h (100 = growth as untreated, 0 = no growth, -100 = all killed)
# Test Settings: 10 µM unless noted
The panel holds about 83,000 compounds, 20% with a hit somewhere; the sample as a whole holds those more often.
Recorded growth for the following compounds
Measurement Name: growth (%)

Compound | Measurement Unit | Number
COc1cc(/C(C#N)=C/c2ccc3c(c2OC)OCO3)cc2c1OCO2 | % | 19.8
CN(C)CC(C(=O)c1ccccc1)c1ccccc1 (stereo not drawn) | % | -61.9
O=C(Nc1ccncc1)C(=O)c1cn(S(=O)(=O)c2ccc(Cl)cc2)c2ccccc12 | % | 10.4

* * *

# Test system: LOX IMVI melanoma
# Experiment: NCI-60 one-dose screen, 48 h (100 = growth as untreated, 0 = no growth, -100 = all killed)
# Test Settings: 10 µM unless noted
About 83,000 compounds went through this panel and 20% of them were active in at least one assay; those are over-represented in the sample as a whole.
Measurement Name: growth (%)

Compound | Number
COc1ccc(Nc2ncccc2C(=O)NCc2cn(Cc3cccc(Oc4ccccc4)c3)nn2)c(OC)c1 | 48.4
CCn1c2ccccc2c2cc(NC(=O)Nc3ccc([N+](=O)[O-])cc3C)ccc21 | 39.2
O=c1[nH]c2ccc(Br)cc2c2c1C(c1ccc(Cl)cc1)c1c(ncn3nc(-c4ccco4)nc13)O2 (stereo unspecified) | 76.7
COc1ccc(Nc2nc(N)nc3c2CCN(Cc2ccc(OC)cc2OC)C3=O)cc1 | 71.9
COc1cc(NC(=O)SC2=NCCS2)cc(OC)c1 | 98.3
O=C(C1=Cc2cc3ccccc3n2Cc2cnnn21)c1ccccc1 | 49.8

* * *

# Test system: SF-268 CNS
# Experiment: NCI-60 one-dose screen, 48 h
# Test Settings: 10 µM unless noted
This is part of a sample that, as a whole, favours compounds with a hit. Of some 83,000 tested, about 20% had one in any assay. The source made the active and inactive calls. How the source made its calls: active means growth percent below 10; inactive means the rest.
Outcomes: Y = active, N = inactive

Compound | Target Entity | Group Label
CN(C[C@H]1Cc2c(cccc2N2CCN(Cc3ccccn3)CC2)CN1)[C@H]1CCCc2cccnc21 | SF-268 CNS | N
COc1ccc(-c2ccc(-c3ccc(C(=N)N)cn3)s2)cc1OC | SF-268 CNS | N
CC(=O)Oc1csc(N(C(C)=O)c2cc(C(=O)O)cc(C(=O)O)c2)n1 | SF-268 CNS | N
Fc1ccc(Nc2nc(NCCNc3ccnc4cc(Cl)ccc34)nc(N3CCOCC3)n2)cc1 | SF-268 CNS | N
Cc1cc(N/N=C/c2nc(-c3ccc(Br)cc3)oc2C)c2cc(Br)ccc2n1 | SF-268 CNS | N
C=C1c2nc3ccccc3n2C=C(c2ccc(Cl)cc2)N1Cc1ccccc1 | SF-268 CNS | N
COc1ccc(C(=O)NC(=O)Nc2cc3c(cc2F)/C(=C/c2[nH]c(C)c(CCC(=O)O)c2C)C(=O)N3)c(F)c1 | SF-268 CNS | N
NC(=O)CCCN1C/C(=C\c2ccccc2)C(=O)c2ccccc21 | SF-268 CNS | N
Cc1nc2cncc(C#Cc3cncc(C(=O)Nc4ccc(CN5CCN(C)CC5)c(C(F)(F)F)c4)c3)c2nc1C | SF-268 CNS | N
CCCCCCCCC(C)OC(=O)c1nn(C(C)=O)c2ccccc12 (centres undefined) | SF-268 CNS | N
COc1cc2c(cc1OCCCCCn1c3ccccc3c3ccccc31)N=C[C@@H]1CCCN1C2=O | SF-268 CNS | Y
CN(C)CC(C(=O)c1ccccc1)c1ccccc1 (centres undefined) | SF-268 CNS | Y
Cc1nn(-c2ccc(Cl)cc2)c2ncnc(N/N=C/c3cccc([N+](=O)[O-])c3)c12 | SF-268 CNS | N
COc1cccc(-c2cc3c(O)cc(C#N)cc3[nH]2)c1 | SF-268 CNS | N
Cc1ccc(-c2cc3nc(-c4ccccc4)nc(C(Cl)Cl)n3n2)cc1 | SF-268 CNS | Y
COc1ccc(Nc2[nH]n3c(=O)cc(C)nc3c2C(N)=O)c(OC)c1 | SF-268 CNS | N
COc1ccc(CNCCCN2C(=O)c3ccc4c5c(ccc(c35)C2=O)C(=O)N(CCCNCCCCNCCCN)C4=O)c(OC)c1OC | SF-268 CNS | N
Fc1ccccc1-c1nc(-c2nc3cc(Cl)c(Cl)cc3[nH]2)c2ccccn12 | SF-268 CNS | N
CC1=NC2=CC=CC3=NC(C(Cl)(Cl)Cl)=NC(=N1)N23 | SF-268 CNS | N
